Where do the numbers come from? From PubChem BioAssay AID1996.

test-settings: buffer; pH 7.4; 200.0 µM
result-type: solubility kinetic (µg/mL)
The figure you give is taken to be in µg/mL; do not add the unit.

### Prompt Look up solubility kinetic for this compound: O=C(/C=C/c1cccs1)Nc1nccs1
### Response 0.7

Others:
### Prompt Look up solubility kinetic for this compound: Cn1ccsc1=NC(=O)c1ccc(S(=O)(=O)C(F)F)cc1
### Response 2.5

### Prompt Look up solubility kinetic for this compound: Cc1ccc(S(=O)(=O)NC2CCSC2=O)cc1C (configuration not stated)
### Response 3.1

### Prompt Look up solubility kinetic for this compound: Cc1nc2ccc(NS(=O)(=O)c3ccc(F)c(F)c3F)cc2s1
### Response 50.7

### Prompt Look up solubility kinetic for this compound: CC1(C)CCc2cc(CN3CCN(c4ccccn4)CC3)ccc2O1
### Response 47.5

### Prompt Look up solubility kinetic for this compound: O=S(=O)(c1ccccc1)c1nc(-c2ccco2)oc1N1CCCCC1
### Response 16.1

* * *

Recorded measurements of solubility kinetic, one per entry
test-settings: buffer; pH 7.4; 200.0 µM

### Prompt Look up solubility kinetic for this molecule: Cc1ccccc1C(=O)Nc1ccc(N2CCN(C)CC2)nc1
### Response > 46.6 µg/mL

### Prompt Look up solubility kinetic for this molecule: CC1CCC(NC(=O)c2cccn2C)CC1 (configuration not stated)
### Response > 33 µg/mL

### Prompt Look up solubility kinetic for this molecule: CCOC(=O)c1csc(NC(=O)CN2CCCCC2)n1
### Response > 44.6 µg/mL

Others:
### Prompt Look up solubility kinetic for this molecule: COc1ccc(NC(=O)CNC(=O)Cc2cccc3ccccc23)cc1
### Response 4.3 µg/mL

### Prompt Look up solubility kinetic for this molecule: CCCC(=O)Nc1nc2c(C)c(Cl)ccc2s1
### Response < 0.3 µg/mL

### Prompt Look up solubility kinetic for this molecule: O=C(Nc1cccc(S(=O)(=O)NC2=NCCC2)c1)c1ccccc1
### Response > 51.5 µg/mL

### Prompt Look up solubility kinetic for this molecule: O=C(NC(=O)c1ccc(Cl)cc1)Nc1ccc(-c2cnco2)cc1
### Response 2.7 µg/mL

### Prompt Look up solubility kinetic for this molecule: Cc1cc(SCC(=O)NC2CC2)nc2ccccc12
### Response > 40.9 µg/mL

### Prompt Look up solubility kinetic for this molecule: CC(C)c1ccc(N)c(S(=O)(=O)O)c1
### Response > 32.3 µg/mL

### Prompt Look up solubility kinetic for this molecule: O=C(CC1CC2CCC1C2)NCCc1ccc(Cl)cc1 (configuration not stated)
### Response 29.7 µg/mL

### Prompt Look up solubility kinetic for this molecule: O=c1c2cc(-c3ccccc3)sc2nc2n1CCC2
### Response 1.5 µg/mL

### Prompt Look up solubility kinetic for this molecule: Cc1cc(C(=O)N2CCC(C(=O)O)CC2)c(C(F)(F)F)o1
### Response > 45.8 µg/mL

* * *

test-settings: buffer; pH 7.4; 200.0 µM
result-type: solubility kinetic (µg/mL)
The figure you give is taken to be in µg/mL; do not add the unit.

Sample answers from the record:
### Prompt Look up solubility kinetic for this compound: O=C(CCNC(=O)c1ccccc1)Nc1ccc(Cl)c(S(=O)(=O)N2CCCCC2)c1
### Response 29.8

### Prompt Look up solubility kinetic for this compound: Fc1cnc(Cl)nc1NC1CCCCC1
### Response 27.1

### Prompt Look up solubility kinetic for this compound: Cc1nc(Oc2ccccc2)c2ccsc2n1
### Response 20

### Prompt Look up solubility kinetic for this compound: O=C(/C=C/c1ccccc1[N+](=O)[O-])OC1CCCCC1=O (centres undefined)
### Response 4.5

### Prompt Look up solubility kinetic for this compound: CCCCCCCNC(=O)c1cc(-c2ccncc2)nc2ccccc12
### Response 0.8

### Prompt Look up solubility kinetic for this compound: Cc1cc2ccc3ccccc3c2cc1CN(C)C.Cl
### Response 24.5

### Prompt Look up solubility kinetic for this compound: CN1CCN(/C=C(\C#N)S(=O)(=O)c2ccc(Cl)cc2)CC1
### Response 44.1

### Prompt Look up solubility kinetic for this compound: Cc1ccccc1CN(C)CCc1ccccn1.O=C(O)C(=O)O
### Response 25.6

### Prompt Look up solubility kinetic for this compound: COC(=O)[C@H](Cc1ccccc1)NC(=O)Nc1ccc(OC)cc1
### Response 47

### Prompt Look up solubility kinetic for this compound: S=C(NCc1ccc(Cl)c(Cl)c1)NCc1ccco1
### Response 23.1

Others:
### Prompt Look up solubility kinetic for this compound: O=C(CCn1c(=S)[nH]c2ccccc2c1=O)N1CCCCC1
### Response 9.1

* * *

test-settings: buffer; pH 7.4; 200.0 µM
Recorded measurements of solubility kinetic, one per entry
The figure you give is taken to be in µg/mL; do not add the unit.

Sample answers from the record:
### Prompt Look up solubility kinetic for this compound: Cc1ccccc1NC(=S)N1CCN(c2ccccc2C)CC1
### Response 0.6

### Prompt Look up solubility kinetic for this compound: COc1ccc(C(=O)OCC(=O)c2ccc3c(c2)NC(=O)CO3)cc1[N+](=O)[O-]
### Response 2.7

Could you now consider this next compound?
### Prompt Look up solubility kinetic for this compound: Cc1ccc(NC(=O)CCC(=O)c2cccs2)nc1
### Response 34.6

* * *

Recorded measurements of solubility kinetic, one per entry
test-settings: buffer; pH 7.4; 200.0 µM
The figure you give is taken to be in mg/mL; do not add the unit.

Sample answers from the record:
### Prompt Look up solubility kinetic for this compound: CCCCCn1c(C)c2c(OCC)cccc(=O)c2c1C
### Response 0.0094

### Prompt Look up solubility kinetic for this compound: COC(=O)c1c(C)[nH]c(C(=O)CC#N)c1C
### Response 0.0272

### Prompt Look up solubility kinetic for this compound: c1ccc2cc(Cn3ccnc3)ccc2c1
### Response 0.0285

Others:
### Prompt Look up solubility kinetic for this compound: O=C(c1cc2cc(Cl)ccc2[nH]1)N1CCCCC1
### Response 0.002

### Prompt Look up solubility kinetic for this compound: N/C(=N\OC(=O)c1cccc(Br)c1)c1ccc([N+](=O)[O-])cc1
### Response 0.0014

### Prompt Look up solubility kinetic for this compound: Nc1cc(Nc2ccccc2)c2nonc2c1[N+](=O)[O-]
### Response 0.0005

### Prompt Look up solubility kinetic for this compound: O=c1oc(Nc2cccc(Cl)c2)nc2ccccc12
### Response 0.0005

### Prompt Look up solubility kinetic for this compound: CC(C)c1ccc(NC(=O)C2CC2c2ccccc2)cc1 (stereo unspecified)
### Response 0.012

### Prompt Look up solubility kinetic for this compound: CNC(=O)Cc1csc2ccc(C)cc12
### Response 0.0304

### Prompt Look up solubility kinetic for this compound: CC(Oc1ccc(Cl)cc1)C(=O)N1CCCc2ccccc21 (stereo unspecified)
### Response 0.0021

### Prompt Look up solubility kinetic for this compound: O=C(NC1CCCCCCC1)c1cccc(Cl)c1
### Response 0.0009

### Prompt Look up solubility kinetic for this compound: Cc1ccc(F)c(N=Cc2c(O)c3ccccc3oc2=O)c1
### Response 0.0018

### Prompt Look up solubility kinetic for this compound: O=C(NC1CCCCCC1)c1ccc(Br)o1
### Response 0.0277

### Prompt Look up solubility kinetic for this compound: CCOC(=O)C1=C(C)NC(=S)NC1c1ccco1 (stereo unspecified)
### Response 0.0399

### Prompt Look up solubility kinetic for this compound: CC(C)N1CCN(Cc2ccc3c(c2)OCCO3)CC1CCO (stereo unspecified)
### Response 0.0455

### Prompt Look up solubility kinetic for this compound: O=[N+]([O-])c1ccc(N2CCN(C(=S)Nc3ccc(F)cc3)CC2)cc1
### Response 0.0004

### Prompt Look up solubility kinetic for this compound: CC(C)c1ccccc1NC(=O)Nc1ccc2c(c1)OCO2
### Response 0.0027

* * *

test-settings: buffer; pH 7.4; 200.0 µM
Output 1 for solubility kinetic not less than 30 µg/mL; output -1 otherwise.

### Prompt Item Cc1cccnc1NC(=O)CCC(=O)c1cccs1 with solubility kinetic of 30 µg/mL or above?
### Response 1

Others:
### Prompt Item O=C(CCCc1ccccc1)NCc1ccccc1Cl with solubility kinetic of 30 µg/mL or above?
### Response 1

### Prompt Item COc1cc(CN2CCC(CO)(CCOc3ccccc3)CC2)cc(OC)c1 with solubility kinetic of 30 µg/mL or above?
### Response 1

### Prompt Item COc1ccc(C(C)NC(=S)NCc2ccc(F)cc2)cc1 (configuration not stated) with solubility kinetic of 30 µg/mL or above?
### Response -1

### Prompt Item COC(=O)c1scc(S(=O)(=O)c2ccccc2)c1N with solubility kinetic of 30 µg/mL or above?
### Response -1

### Prompt Item O=C(OCC(=O)N1CCCCC1)c1c[nH]c2ccccc12 with solubility kinetic of 30 µg/mL or above?
### Response 1
